meta.source: ChEMBL document CHEMBL1201862

# Test system: U-251
# Measurement Notes: NCI tumour cell line growth inhibition, 48 h
Calls of active or inactive are those of the source. Rule as the data show it: active = GI50 up to about 1.1 µM and inactive = higher.
Value Kind: GI50

// solved cases for GI50 follow
# Molecule, GI50
measured = [
    ("COc1ccc(C=O)cc1Oc1ccc(C[C@H]2c3c(cc(OC)c4c3Oc3cc5c(cc3O4)CCN(C)C5=O)CCN2C)cc1", "9.51 µM (inactive)"),
    ("CC1NC(C(=O)O)Cc2cc(O)c(O)cc21 (configuration not stated)", "> 100 µM (inactive)"),
    ("COC(=O)CN(CC(O)C(NC(C)=O)C(O)C=O)C(=O)OCc1ccccc1 (configuration not stated)", "> 100 µM (inactive)"),
    ("COc1cccc2c1C(CO)N1C(C#N)C3CC(C(=O)O)C(C1C2)N3C (configuration not stated)", "1.52 µM (inactive)"),
    ("Cc1ccc(Cl)c(NC(=O)C(=O)C(C(=O)c2ccncc2)C2OC(=O)c3ccccc32)c1 (configuration not stated)", "> 100 µM (inactive)"),
]

*Q* Consider the molecule CC1=CP(=O)(c2ccccc2)C=C(C)C1=C(Cl)Cl (configuration not stated) . State its measured GI50.
*A* 6.71 µM (inactive)

*Q* Find the measured GI50 of CCCCC(C(=O)CCC(=O)Nc1ccc(Cl)cc1)C(=O)C(C)C (configuration not stated) and report it.
*A* > 100 µM (inactive)
